Origin of measurements: ChEMBL document CHEMBL5291721

target_or_system: UniProtKB P08588
Sequence (P08588 whole entry): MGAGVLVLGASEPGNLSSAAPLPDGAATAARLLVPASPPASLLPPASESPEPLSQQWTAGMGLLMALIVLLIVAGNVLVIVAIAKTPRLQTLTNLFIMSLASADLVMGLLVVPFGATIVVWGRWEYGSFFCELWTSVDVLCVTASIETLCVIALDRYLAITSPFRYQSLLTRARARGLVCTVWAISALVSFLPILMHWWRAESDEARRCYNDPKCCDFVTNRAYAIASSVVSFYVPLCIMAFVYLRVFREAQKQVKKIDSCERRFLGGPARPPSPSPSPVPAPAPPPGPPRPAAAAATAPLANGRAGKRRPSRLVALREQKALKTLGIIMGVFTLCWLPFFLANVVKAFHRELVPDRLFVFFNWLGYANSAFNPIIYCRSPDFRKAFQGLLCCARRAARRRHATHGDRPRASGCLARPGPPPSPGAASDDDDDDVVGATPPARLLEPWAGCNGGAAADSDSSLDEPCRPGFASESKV
Format: functional
endpoint: AC50

{"columns": ["molecule", "result"],
 "data": [
  ["COC(=O)C1=C(C)NC(C)=C(C(=O)OC(C)C)C1c1cccc2nonc12 (stereo not drawn)", "> 10 µM"],
  ["CC(C)c1c(C(=O)Nc2ccccc2)c(-c2ccccc2)c(-c2ccc(F)cc2)n1CC[C@@H](O)C[C@@H](O)CC(=O)O", "> 10 µM"],
  ["CC(C)C(=O)Nc1ccc([N+](=O)[O-])c(C(F)(F)F)c1 [FLUTAMIDE]", "> 10 µM"]
]}

Suppose we examine the molecule "O=C1CN=C(c2ccccc2)c2cc(Cl)ccc2N1CC(F)(F)F" ; what AC50 value has been reported?
> 30 µM

Data request, read-out AC50, for CC(N)Cc1ccccc1 (stereo not drawn)
> 30 µM

I have this molecule here, "CC(C)NNC(=O)c1ccncc1" , and I need its recorded AC50.
> 30 µM

Please give the measured AC50 for this molecule: "CC(C)(N)Cc1ccc(Cl)cc1"
> 10 µM

I have this molecule here, CN1CCCC(n2nc(Cc3ccc(Cl)cc3)c3ccccc3c2=O)CC1 (stereo not drawn) , and I need its recorded AC50.
18 µM
